molecular target: T1, Human CD137 ECD (human); assay: single mutant vs template dBBDu183H
T1 construct: also called 4-1BB
T1 sequence (chain, as listed by the source limits assumed): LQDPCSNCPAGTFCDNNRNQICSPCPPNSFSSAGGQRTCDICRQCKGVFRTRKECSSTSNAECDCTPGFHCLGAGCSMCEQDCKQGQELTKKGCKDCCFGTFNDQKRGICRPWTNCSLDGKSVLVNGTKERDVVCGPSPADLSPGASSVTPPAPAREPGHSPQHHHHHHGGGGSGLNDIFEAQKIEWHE
attribute-measured: fold change of affinity (fold)

H183/L072 VH S99I (antibody, name in Kabat numbering, V domains shown) VH: QVQLVESGGGLVQPGRSLRLSCAASGFTFSNAWMHWVRQAPGKGLEWVAQIKDKGNAYAAYYAPSVKGRFTISRDDSKNSIYLQMNSLKTEDTAVYYCHYVHYAIASTVLPAFGVDAWGQGTTVTVSS VL: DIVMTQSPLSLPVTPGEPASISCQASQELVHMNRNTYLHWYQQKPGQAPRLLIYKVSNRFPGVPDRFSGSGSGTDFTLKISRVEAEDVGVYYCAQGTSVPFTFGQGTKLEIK | 0
H183/L072 VH F29M (antibody, name in Kabat numbering, V domains shown) VH: QVQLVESGGGLVQPGRSLRLSCAASGFTMSNAWMHWVRQAPGKGLEWVAQIKDKGNAYAAYYAPSVKGRFTISRDDSKNSIYLQMNSLKTEDTAVYYCHYVHYASASTVLPAFGVDAWGQGTTVTVSS VL: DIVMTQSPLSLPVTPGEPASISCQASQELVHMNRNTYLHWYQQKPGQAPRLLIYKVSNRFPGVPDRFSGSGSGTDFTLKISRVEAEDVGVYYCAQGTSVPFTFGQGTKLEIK | 0.3
H183/L072 VH K52bT (antibody, name in Kabat numbering, V domains shown) VH: QVQLVESGGGLVQPGRSLRLSCAASGFTFSNAWMHWVRQAPGKGLEWVAQIKDTGNAYAAYYAPSVKGRFTISRDDSKNSIYLQMNSLKTEDTAVYYCHYVHYASASTVLPAFGVDAWGQGTTVTVSS VL: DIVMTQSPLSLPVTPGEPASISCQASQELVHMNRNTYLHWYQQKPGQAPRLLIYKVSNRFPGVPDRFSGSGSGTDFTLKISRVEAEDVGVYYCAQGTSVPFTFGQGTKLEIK | 0.1
